The values you see were collected from patent US20070077308A1.

# ASSAY REMARKS: Storage stability of microencapsulated fish oil fatty acids
# Type: physicochemical
# MEASUREMENT CONDITIONS: d = 30; 4° C.
PROPERTY MEASURED: % in the oil (% in the oil)

Worked cases, % in the oil given:
STRUCTURE SMILES STRING	% in the oil / % in the oil
CCCCC/C=C\C/C=C\CCCCCCCC(=O)O	2.6
CCCCCCCC/C=C\CCCCCCCC(=O)O	2.7
CCCCCCCCCCCCCCCC(=O)O	1.1

a: CCCCCCCCCCCCCCCCCC(=O)O
b: CC/C=C\C/C=C\C/C=C\CCCCCCCC(=O)O
Input: # min-compare on % in the oil between a and b Reply with the label of the item you choose.
Output: a
(a: 1.4 % in the oil, b: 2.5 % in the oil)

---

# ASSAY REMARKS: Storage stability of microencapsulated fish oil fatty acids
# Format: physicochemical
# MEASUREMENT CONDITIONS: d = 30; 45° C.
PROPERTY MEASURED: % in the oil (% in the oil)

Worked examples follow.
STRUCTURE SMILES STRING	% in the oil [% in the oil]
CCCCCCCCCCCCCCCC(=O)O	1.1
CCCCC/C=C\C/C=C\CCCCCCCC(=O)O	2.5
CC/C=C\C/C=C\C/C=C\CCCCCCCC(=O)O	2.5

1: CCCCCCCC/C=C\CCCCCCCC(=O)O
2: CCCCCCCCCCCCCCCCCC(=O)O
Input: Task for the reader: decide whether 1 or 2 has the larger % in the oil. Pick one and reply with its label.
Output: 1

---

# ASSAY REMARKS: Storage stability of microencapsulated fish oil fatty acids
# Type: physicochemical
# MEASUREMENT CONDITIONS: d = 0
PROPERTY MEASURED: % in the oil (% in the oil)

// solved cases for % in the oil follow
COMPOUND	NUMBER
CC/C=C\C/C=C\C/C=C\CCCCCCCC(=O)O [alpha-linolenic acid]	2.7
CCCCCCCC/C=C\CCCCCCCC(=O)O [oleic acid]	2.9
CCCCCCCCCCCCCCCC(=O)O [Palmitic acid]	1.1

I: CCCCCCCCCCCCCCCCCC(=O)O [Stearic acid]
II: CCCCC/C=C\C/C=C\CCCCCCCC(=O)O [linoleic acid]
Input: Looking at recorded values for % in the oil, does I or II come in lower? Returns: label corresponding to the selected item.
Output: I

---

# ASSAY REMARKS: Storage stability of microencapsulated fish oil fatty acids
# Format: physicochemical
# MEASUREMENT CONDITIONS: d = 30; 25° C.
PROPERTY MEASURED: % in the oil (% in the oil)

Consider the reported % in the oil for these molecules:
STRUCTURE SMILES STRING	% in the oil (% in the oil)
CCCCC/C=C\C/C=C\CCCCCCCC(=O)O	2.6
CCCCCCCCCCCCCCCC(=O)O	1.1
CCCCCCCC/C=C\CCCCCCCC(=O)O	2.6

1: CCCCCCCCCCCCCCCCCC(=O)O
2: CC/C=C\C/C=C\C/C=C\CCCCCCCC(=O)O
Input: Sorting by % in the oil in descending order, would 1 or 2 appear first? Your choice should be expressed through its label.
Output: 2
(2: 2.6 % in the oil, 1: 1.4 % in the oil)
